- procedure-details: ABTS radical scavenging assay
- Type: biochemical
- measurement-setup: supplement tables; replicate 1
# ABTS >= 5 TE/mg protein gives yes, anything below gives no

Task: Quick check, ABTS >= 5 TE/mg protein? MVVACVLPEA [P16, synthesized peptide identified from jellyfish fraction PUR20C]
Result: yes

Task: Quick check, ABTS >= 5 TE/mg protein? PFTMYFLL [P14, synthesized peptide identified from jellyfish fraction PUR20C]
Result: yes

Task: Quick check, ABTS >= 5 TE/mg protein? DAENKENVEE [P18, synthesized peptide identified from jellyfish fraction PUR20C]
Result: yes

Task: Quick check, ABTS >= 5 TE/mg protein? EIILIPMF [P3, synthesized peptide identified from jellyfish fraction PUR20C]
Result: no
